- System: SK-MEL-5 melanoma
- Assay Remarks: NCI tumour cell line growth inhibition, 48 h; in the data active = GI50 below about 0.43 µM; inactive = the rest
Valid outcomes are listed here; reply with one: active, inactive

COc1cc2[nH]c(C(=O)c3cc(OC)c(OC)c(OC)c3)c(N)c2cc1C#CC1CC1 :: inactive
CCn1c(SCc2ccc(C)cc2)nnc1-c1nn(-c2ccc(Cl)cc2Cl)c(-c2ccc(Cl)cc2)c1C :: inactive
CC(C)(C[C@H]1CN(S(=O)(=O)c2cccc(C(F)(F)F)c2)c2cc(-c3cc(F)cc(OC(F)F)c3)ccc2O1)C(=O)O :: inactive
O=C1Nc2ccc(F)cc2/C1=C/c1ccc[nH]1 :: inactive
C1C[OH+]CC[OH+]CC[OH+]CC[OH+]CC[OH+]1.[Cl-].[V] :: inactive
Nc1ccc(-c2nc3ccc(Cc4ccc5nc(-c6ccc(N)cc6)[nH]c5c4)cc3[nH]2)cc1 :: inactive
CCSc1nc(SCC)c2cn[nH]c2n1 :: inactive
O=c1cc(NC2CCN(CCCc3ccccc3)CC2)c2cc(Cl)ccc2o1 :: inactive
CC(=O)C(=CN1CCN(C(=O)c2ccco2)C1=S)C(C)=O :: inactive
C1CCC([PH+](C2CCCCC2)C2CCCCC2[PH+](C2CCCCC2)C2CCCCC2)CC1.O=C(C1[CH-]CCCC1)C1CCCC[N-]1.[Au] (configuration not stated) :: active

IN: Field: outcome | Entry: `ClCc1cccc(Cn2cnc3nc(Cl)nc(Cl)c32)c1`
OUT: inactive

IN: Field: outcome | Entry: C#Cc1c(I)n(C2OC(CO[Si](C)(C)C(C)(C)C)C3OC(C)(C)OC32)c(=O)[nH]c1=O (configuration not stated)
OUT: inactive

---

- Tested on: SNB-75 CNS
- Assay Remarks: NCI tumour cell line growth inhibition, 48 h
# key: entry, value: GI50

Below, 8 molecules whose answers are already recorded.
CN(C)c1cc[c]([Sn]([c]2ccc(N(C)C)cc2)([c]2ccc(N(C)C)cc2)[c]2ccc(N(C)C)cc2)cc1 :: 4.36 µM
C1C[OH+]CC[OH+]CC[OH+]CC[OH+]CC[OH+]1.[Cl-].[V] :: 16.2 µM
COc1ccc(-c2nn(-c3ccc(NC(=O)Nc4cc(C(F)(F)F)cc(C(F)(F)F)c4)cc3)cc2-c2ccncc2)cc1Cl :: 1.8 µM
O=c1cc(NC2CCN(CCCc3ccccc3)CC2)c2cc(Cl)ccc2o1 :: 8.1 µM
CC(=O)C(=CN1CCN(C(=O)c2ccco2)C1=S)C(C)=O :: 9.02 µM
O=C1Nc2ccc(F)cc2/C1=C/c1ccc[nH]1 :: > 25 µM
CN(C)C(=O)[C@H](O)[C@H](Cc1ccccc1)NC(=O)c1cc2cc(Cl)ccc2[nH]1 :: 17.4 µM
CCCCON(OC(=O)c1ccc2ccc3cccc4ccc1c2c34)C(C)=O :: 19.9 µM

Consider now this further molecule.
So for `O=c1c2ccccc2c(=O)c2c1[nH]c1c(-c3ccccc3)c(-c3ccccc3)c(=O)c12` , the logged GI50 turned out to be 15.1 µM

---

- System: T-47D breast
- Assay Remarks: NCI tumour cell line growth inhibition, 48 h
Value Type: TGI (µM)
The reply should contain only the number, in µM.

Below, 3 molecules whose answers are already recorded.
CC/C=C\C[C@H]1C/C=C2/C(=O)C=C[C@@H]2C/C=C\CCCC(=O)O1 :: 9.33
COc1ccc(-c2nn(-c3ccc(NC(=O)Nc4cc(C(F)(F)F)cc(C(F)(F)F)c4)cc3)cc2-c2ccncc2)cc1Cl :: 83.3
CN(C)c1ccc(C2SCC(=O)N2c2ccc(Oc3ccc(Cl)cc3)c(Cl)c2)cc1 (stereo not given) :: 61

Consider now this further molecule.
So for `COc1ccc(C(=O)COc2ccc(/C=C3\COc4ccc(OC)cc4C3=O)cc2)cc1` , the logged TGI turned out to be 96.6
